The measurements presented in this section are drawn from patent US20220177508A1.

- System: S. aureus MP-12
- TEST NAME: Broth dilution MIC determination (CLSI), S. aureus MP-12
- Type: cell-based
- MEASUREMENT SETUP: Staphylococcus aureus, MP12; strain MP-12, broth dilution
READOUT KIND: MIC

MOLECULE | MIC
CO[C@]1(C)C[C@@H](C)CN(CC(C)C)[C@H](C2CN(CC(C)C)C2)COC(=O)C(C)(C)C(=O)[C@H](C)[C@H]1O[C@@H]1O[C@H](C)C[C@H](N(C)C)[C@H]1O [Compound 21] | > 32 µg/mL
CO[C@]1(C)C[C@@H](C)CN(C)[C@H](C2CN(C(=O)CC(C)(C)CN(C)C)C2)COC(=O)C(C)(C)C(=O)[C@H](C)[C@H]1O[C@@H]1O[C@H](C)C[C@H](N(C)C)[C@H]1O [Compound 183] | 4 to 32 µg/mL
CCCN1C[C@H](C)C[C@@](C)(OC)[C@H](O[C@@H]2O[C@H](C)C[C@H](N(C)C)[C@H]2O)[C@@H](C)C(=O)C(C)(C)C(=O)OC[C@H]1[C@H]1C[C@H](N(C)CC(C)C)C1 [Compound 60] | 4 to 32 µg/mL
CCCN1C[C@H](C)C[C@@](C)(OC)[C@H](O[C@@H]2O[C@H](C)C[C@H](N(C)C)[C@H]2O)[C@@H](C)C(=O)C(C)(C)C(=O)OC[C@H]1C1CN(CC(C)C)C1 [Compound 105] | > 32 µg/mL
CO[C@]1(C)C[C@@H](C)CN(C)[C@H](C2CCCCC2)COC(=O)C(C)(C)C(=O)[C@H](C)[C@H]1O[C@@H]1O[C@H](C)C[C@H](N(C)C)[C@H]1O [Compound 88] | > 32 µg/mL

Hi! Can you tell me MIC for each of these molecules?
1. CNCC(=O)N1C2CCC1CC([C@@H]1COC(=O)C(C)(C)C(=O)[C@H](C)[C@@H](O[C@@H]3O[C@H](C)C[C@H](N(C)C)[C@H]3O)[C@](C)(OC)C[C@@H](C)CN1C)C2 (stereo partly shown) [Compound 44]
2. CO[C@]1(C)C[C@@H](C)CN(C)[C@H](C2CN(C(=O)CCCN(C)CC3CCC3)C2)COC(=O)C(C)(C)C(=O)[C@H](C)[C@H]1O[C@@H]1O[C@H](C)C[C@H](N(C)C)[C@H]1O [Compound 156]
3. CO[C@]1(C)C[C@@H](C)CN(C)[C@H](C2CN(C(=O)CCN(C)CC(C)C)C2)COC(=O)C(C)(C)C(=O)[C@H](C)[C@H]1O[C@@H]1O[C@H](C)C[C@H](N(C)C)[C@H]1O [Compound 125]
4. CO[C@]1(C)C[C@@H](C)CN(C)[C@@H](C2CCN(C[C@H](CO)N(C)C)CC2)CO[C@@H](O)C(C)(C)C(=O)[C@H](C)[C@H]1O[C@@H]1O[C@H](C)C[C@H](N(C)C)[C@H]1O [Compound 200]
5. CO[C@]1(C)C[C@@H](C)CN(C)[C@@H]([C@@H]2CCN(CC(C)C)C2)COC(=O)C(C)(C)C(=O)[C@H](C)[C@H]1O[C@@H]1O[C@H](C)C[C@H](N(C)C)[C@H]1O [Compound 110]

["> 32 µg/mL", "> 32 µg/mL", "> 32 µg/mL", "4 to 32 µg/mL", "4 to 32 µg/mL"]
